test_system: sec7-domain of cytohesin-1 (Homo sapiens)
Sequence (Q15438 62-244): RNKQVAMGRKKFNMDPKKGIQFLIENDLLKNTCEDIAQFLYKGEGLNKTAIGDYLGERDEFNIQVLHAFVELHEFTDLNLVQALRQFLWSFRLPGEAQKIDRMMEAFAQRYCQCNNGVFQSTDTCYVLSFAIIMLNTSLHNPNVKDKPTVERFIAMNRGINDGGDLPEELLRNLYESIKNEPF
property: pIC50
Remember, pIC50 is on a log scale: it is -log10 of the molar concentration.

Please look up its pIC50: CCOc1nc(-c2cccc(F)c2)n(-c2ccc(NC(=O)Cc3cccs3)cc2)n1
4.90

Please look up its pIC50: CCOc1nc(-c2ccccc2F)n(-c2ccc(NC(=O)CSc3ccccc3)cc2)n1
5.06

Please look up its pIC50: COc1nc(-c2ccc3c(c2)OCO3)n(-c2ccc(NC(=O)CSc3ccccc3)cc2)n1
5.12

Please look up its pIC50: O=C(O)[C@H]1CSCN1C(=O)Cc1cccs1
4.82

Please look up its pIC50: CN(c1cc(Cl)nc(SCc2ccc(C(=O)NCc3ccco3)cc2)n1)C1CCCCC1
5.10
